Task for the reader: assign each of the following sequences its reported protein stability index.
# test-name: protein stability index of a GFP-peptide fusion (yeast GPS) (PSI 1-4); higher = more stable; sorted into four equal gates, so the index is relative within each strain
# cond: pdr5∆
Give bare numbers.

Below, 3 sequences whose answers are already recorded.
INSERT INTO assay_data (macromolecule_sequence, endpoint_name, measured) VALUES
  ('ASYAKIEIKISDPLTVF [SNU114]', 'protein stability index', 2.66),
  ('ALNGIDINTVNTNLMNG [GRR1]', 'protein stability index', 3.2),
  ('DRGLSIKLNGSTLLCTD [SNU114]', 'protein stability index', 2.76);

Value sought for every listed sequence: protein stability index.
1. ETNAKPFSFSSATSTTE [YLR335W/NUP2]
2. IYSPLHSFIKMLQMKGK [SIR2]
3. WRLLFIDKFIMVVQKYK [GRR1]
4. FLQDKVQIKDVNDRYQI [CSI1]
5. SGKSNFFAAIRFVLSDD [SMC3]
6. SVPLRKGDRALLVKLSK [BRR2]
7. YGRQELADDLITKMLAS [RPN2]
8. RRGTALGIKKEKRIQYA [RPB2]

Key:
1: 2.4; 2: 1.79; 3: 1.79; 4: 1.58; 5: 3.36; 6: 3.33; 7: 2.92; 8: 1.44

Value sought for every listed sequence: protein stability index.
1. EYIIAAIRKAPHNSKSL [RPN3]
2. DIKAPSTFENRNVGKTL [RPS1A]
3. YTETDPAKVAEEGINKF [SRP54]
4. SQVVETHKVTDIYSHEY [YMR129W/POM152]
5. DQLDSEAASITRKSLNN [ECM29]
6. GHRADVGGQFSKVQFDA [REC8]
7. LYPSFKPIYKDTRFGGR [SSN2]

Key:
1. 2.76
2. 2.72
3. 3.3
4. 2.77
5. 2.91
6. 3.45
7. 3.16

----------
# test-name: protein stability index of a GFP-peptide fusion (yeast GPS) (PSI 1-4); higher = more stable; sorted into four equal gates, so the index is relative within each strain
# cond: ubr1∆
Label true when protein stability index is at or above 3; anything below gets false.

# example entries with known answers
INSERT INTO assay_data (macromolecule_sequence, assigned_category) VALUES
  ('MSASNANDFQLTIVTCK [SRB8]', 'false'),
  ('PLKFKLGPLSYQNMAFI [YJR042W/NUP85]', 'false');

Exercise: Textbook exercise: given the entry DGDASKPAFSFGAKSDE [YJL041W/NSP1] , state whether its protein stability index is greater than or equal to 3.
Key: true

Exercise: Textbook exercise: given the entry MDDEEWRSKRIEQLFPV [RPC53] , state whether its protein stability index is greater than or equal to 3.
Key: false

Exercise: Textbook exercise: given the entry SKPESSVLQLIVSEDHI [MED1] , state whether its protein stability index is greater than or equal to 3.
Key: false

Exercise: Textbook exercise: given the entry ADLPGSYNLEYIESKFC [YMR129W/POM152] , state whether its protein stability index is greater than or equal to 3.
Key: true

----------
# test-name: protein stability index of a GFP-peptide fusion (yeast GPS) (PSI 1-4); higher = more stable; sorted into four equal gates, so the index is relative within each strain
# cond: ubr1∆
Label criterion met when protein stability index is at or above 3; anything below gets criterion not met.

# example entries with known answers
INSERT INTO assay_data (macromolecule_sequence, assigned_category) VALUES
  ('VTRGISVLKDSDDKTRQ [PRE1]', 'criterion met'),
  ('NWRRLSGRNIHLAVVCV [SSN2]', 'criterion not met');

Exercise: Textbook exercise: given the entry CRDSDDHKRFIVFHNEF [DIS3] , state whether its protein stability index is greater than or equal to 3.
Key: criterion met

Exercise: Textbook exercise: given the entry VPLAMGIVSVSDPQMKV [RPN1] , state whether its protein stability index is greater than or equal to 3.
Key: criterion not met

Exercise: Textbook exercise: given the entry VTSSFFYRGNYTDFENT [FAS1] , state whether its protein stability index is greater than or equal to 3.
Key: criterion not met

Exercise: Textbook exercise: given the entry DMAILERYYELAFDKLN [ARP7] , state whether its protein stability index is greater than or equal to 3.
Key: criterion not met

Exercise: Textbook exercise: given the entry VLGIKVKIMRDPAKSRT [RPS3] , state whether its protein stability index is greater than or equal to 3.
Key: criterion met

Exercise: Textbook exercise: given the entry SLDMNSMNKELIAIVSK [NUT1] , state whether its protein stability index is greater than or equal to 3.
Key: criterion not met

Exercise: Textbook exercise: given the entry EHSQVEQTCVKLLDSGC [SRP72] , state whether its protein stability index is greater than or equal to 3.
Key: criterion met

Exercise: Textbook exercise: given the entry DKKASMIISGSRDKTIK [ASC1] , state whether its protein stability index is greater than or equal to 3.
Key: criterion not met

Exercise: Textbook exercise: given the entry RKNDNANDHDESIDVDM [SMC3] , state whether its protein stability index is greater than or equal to 3.
Key: criterion met

Exercise: Textbook exercise: given the entry VIRDSVTYTEHAKRKTV [HHF1] , state whether its protein stability index is greater than or equal to 3.
Key: criterion not met

Exercise: Textbook exercise: given the entry ASHNVRRIPKRMRNRAL [POP1] , state whether its protein stability index is greater than or equal to 3.
Key: criterion not met

Exercise: Textbook exercise: given the entry DLETLTMHTKTYAAEIA [RPL32] , state whether its protein stability index is greater than or equal to 3.
Key: criterion not met

----------
Task for the reader: assign each of the following sequences its reported protein stability index.
# test-name: protein stability index of a GFP-peptide fusion (yeast GPS) (PSI 1-4); higher = more stable; sorted into four equal gates, so the index is relative within each strain
# cond: doa10∆
One number for each entry.

Below, 5 sequences whose answers are already recorded.
INSERT INTO assay_data (macromolecule_sequence, endpoint_name, measured) VALUES
  ('EWDLYPQGFSSVERGRK [REC8]', 'protein stability index', 3.41),
  ('PGGAASKSVPTPSLPIA [SNF5]', 'protein stability index', 2.9),
  ('VEAIRRSNQYQRGKMHG [NUT2]', 'protein stability index', 2.85),
  ('QNNKPSFVFGQAAAKPS [YLR335W/NUP2]', 'protein stability index', 1.77),
  ('IGQAVQPKRNLSRYVKW [RPL8A]', 'protein stability index', 2.69);

Value sought for every listed sequence: protein stability index.
1. ALAFGYVKSLHKQISAE [SIN4]
2. TPAAATSPIDIREKVAK [SNF2]

Key:
1: 1.65; 2: 2.75

Value sought for every listed sequence: protein stability index.
1. RMIPPRMVRSIMWQLLD [SSN3]
2. IAATQDFITGSYLISHK [RPO31]
3. AAEKSFKPPKNKYKVVR [SEC65]
4. VDQNPLTMHKIIQLILW [SRB8]
5. SVLYQLSTSAFMEIVLE [YML031W/NDC1]
6. LRELSCCINAAFLALVD [RRP46]

Key:
1: 1.95; 2: 3.03; 3: 3; 4: 1.47; 5: 2.17; 6: 2.38

Exercise: I have this sequence here, GIDLAYNMYDAYGNWFN [PRP8] , and I need its recorded protein stability index.
Key: 2.94

----------
# test-name: protein stability index of a GFP-peptide fusion (yeast GPS) (PSI 1-4); higher = more stable; sorted into four equal gates, so the index is relative within each strain
# cond: doa10∆
Classify by protein stability index. Ranges: label 0 = under 2, label 1 = from 2 up to 3, label 2 = 3 and over

# example entries with known answers
INSERT INTO measurements (macromolecule_sequence, assigned_category) VALUES
  ('LNLPLQFSLPNGDNSTT [SNF12]', 'label 1'),
  ('LMCLSSKYCEKSLPLLI [YCS4]', 'label 1'),
  ('SSAAILGLGIAFAGSKN [RPN1]', 'label 0');

Exercise: Sort DRIIHTWRTQLAASEIG [ECM29] into one of the categories.
Key: label 0

Exercise: Sort ADDAISMHLLKDWTDTF [SRB8] into one of the categories.
Key: label 2

Exercise: Sort WADNYERKEQEEKEKEQ [BRN1] into one of the categories.
Key: label 2

Exercise: Sort NNIDQSLILKESGSTPI [YAR002W/NUP60] into one of the categories.
Key: label 0

Exercise: Sort KTKAMVPPINCIFNFLQ [SME1] into one of the categories.
Key: label 0

Exercise: Sort TLAERQQLAYDLSISAL [RPN9] into one of the categories.
Key: label 1

Exercise: Sort SDLKGKLSSAENANADL [YIL149C/MLP2] into one of the categories.
Key: label 2

Exercise: Sort EDGMIIDVNLNFARQLL [RRP40] into one of the categories.
Key: label 2

Exercise: Sort IQISKLHYTPIEDLWQF [RPC82] into one of the categories.
Key: label 1

Exercise: Sort IAGFDLIGCIDEAKDFI [PUP3] into one of the categories.
Key: label 2

Exercise: Sort SYELRNTTTYKSRPDRP [SNF5] into one of the categories.
Key: label 2

Exercise: Sort KERISVAAASKILSNLV [PRE2] into one of the categories.
Key: label 1

Exercise: Sort QKDQDGRIPLHWSVSFQ [NAS6] into one of the categories.
Key: label 2

Exercise: Sort PYLPKHYLVLLVAKFLY [YJR042W/NUP85] into one of the categories.
Key: label 0

Exercise: Sort SLAATYSMISLQNCCII [ARP9] into one of the categories.
Key: label 0

Exercise: Sort AQQQKRGGFGGRNRGRP [RPS2] into one of the categories.
Key: label 2

Exercise: Sort EQTEGEPKKKRGFLGLF [SRP68] into one of the categories.
Key: label 2

Exercise: Sort HLEEYGYLIQVLLTFLQ [YCS4] into one of the categories.
Key: label 0

Exercise: Sort SNQAVGQTWNFPEVFQV [SRB8] into one of the categories.
Key: label 2

Exercise: Sort PEPSHIDQVMMSVSDND [RET1] into one of the categories.
Key: label 1

Exercise: Sort TNKISPKDFSPNFTGID [SSN2] into one of the categories.
Key: label 1
